Where these numbers come from: patent US20030199671A1

Test system: human IgG
Assay type: binding
Measurement Setup: Table 20; average ligand density 1.9 μmole/ml
Non-standard residues stand in square brackets, D forms with d. Nle = CCCC[C@H](N)C(=O)O
Result Type: Batch Binding (% Capture of Total Load) hIgG (%)
Numbers only, in %.

Please review the entries below; each comes with its answer.
substance="Ac-ACVYTTWGELIWCDNHEPGPEGGGK-NH2 (not fully specified (bridges); printed as Ac-ACVYTTWGELIWCDNHEPGPEGGGK-NH2; cysteine pairing not given here) [DX1064]" assayed_system="human IgG" unit_annotation=% measurement=73
substance="Ac-CVYTTWGELIWCDNHEPGPEGGGK-NH2 (not fully specified (bridges); printed as Ac-CVYTTWGELIWCDNHEPGPEGGGK-NH2; cysteine pairing not given here) [DX1069]" assayed_system="human IgG" unit_annotation=% measurement=74
substance="Ac-[Nle]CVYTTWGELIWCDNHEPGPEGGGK-NH2 (not fully specified (bridges); printed as Ac-[Nle]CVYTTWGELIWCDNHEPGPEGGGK-NH2; cysteine pairing not given here) [DX1068]" assayed_system="human IgG" unit_annotation=% measurement=36

Then this substance:
Lookup: Entry under review: Ac-EHMCVYTTWGELIWCDNHEPGPEGGGK-NH2 (not fully specified (bridges); printed as Ac-EHMCVYTTWGELIWCDNHEPGPEGGGK-NH2; cysteine pairing not given here) [DX1063] . Reported Batch Binding (% Capture of Total Load) hIgG?
Found: 71
